target: recombinant human cGAS (aa147-522) (Homo sapiens); construct: recombinant human cGAS (aa147-522); His6-SUMO (cleaved yes); made in house; host or cells: E. coli BL21/pLys; experiment: In vitro inhibition assay of cGAS activity (ATP consumption, KinaseGlo Max); format: biochemical; details: Table 3, read-out: cGAS Inhibition Results IC50
Sequence (Q8N884 147-522): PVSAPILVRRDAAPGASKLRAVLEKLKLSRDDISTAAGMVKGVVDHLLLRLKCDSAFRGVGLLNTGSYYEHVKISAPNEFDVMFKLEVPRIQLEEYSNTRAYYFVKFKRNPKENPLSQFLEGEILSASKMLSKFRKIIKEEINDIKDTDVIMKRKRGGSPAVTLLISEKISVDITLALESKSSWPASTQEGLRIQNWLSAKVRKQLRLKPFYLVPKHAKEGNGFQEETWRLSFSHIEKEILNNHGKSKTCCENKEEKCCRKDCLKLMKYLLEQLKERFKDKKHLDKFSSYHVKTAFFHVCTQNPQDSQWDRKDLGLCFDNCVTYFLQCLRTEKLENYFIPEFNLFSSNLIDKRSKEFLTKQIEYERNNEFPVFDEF
pIC50: −log10 of the molar value.
As shown below, each of these molecules has a reported pIC50 value.

{"MOLECULE": "O=C(O)CCOC[C@H]1CCCN1c1cc(-n2ccnc2)c2ccc(Cl)c(Cl)c2n1 [I-674]", "pIC50": "> 5.70"}
{"MOLECULE": "O=C(O)Cc1ccc(OC[C@@H]2CCCN2c2cc(-n3ccnc3)c3ccc(Cl)c(Cl)c3n2)cc1 [I-738]", "pIC50": "> 5.70"}

Now for a further molecule.
Query string: Look up pIC50 of O=C(O)[C@@H]1C[C@H](C(F)(F)F)CN1c1cc(-n2ccnc2)c2ccc(Cl)c(Cl)c2n1 [I-508] and report it.
Result string: > 5.70
